Ref: PubChem BioAssay (NCI)

system: NCI-H460 lung; assay: NCI-60 one-dose screen, 48 h; settings: 10 µM unless noted
Compounds without any hit were thinned out: in the full panel of roughly 83,000, 20% have a hit. Calls of active or inactive are those of the source. Rule for the calls: active = growth percent below 10; inactive = the rest.
Write down one outcome, taken from active, inactive

Previously resolved entries follow.
CCOC(=O)c1nn(-c2ccccc2)c(=O)c2c(N)c(C#N)c(-c3cccs3)cc12
inactive
C=C(C)C(=O)O[C@H]1C[C@@]2(C)OC(=CC2=O)[C@H](C)[C@H](O)[C@H]2OC(=O)C(=C)[C@@H]21
inactive
CCNC(=O)Oc1ccc(/C(=C(/C)c2ccc(Cl)cc2)c2ccc(OCCN3CCCC3)cc2)cc1
inactive

**Query** Can you look up the reported call for "COc1ccc(S(=O)(=O)n2cc(C=O)c3ccccc32)c(OC)c1" for me?
**Result** inactive
